- Test system: OVCAR-8 ovarian
- Assay: NCI tumour cell line growth inhibition, 48 h
Value Type: TGI (µM)
Express it in µM; write the number only.

Examples with answers:
Ask: Look up TGI: CCN1CCN(c2nc(C)cc(NCc3cc(Nc4ccnc5cc(Cl)ccc45)ccc3F)n2)CC1
Result: 13.7

Ask: Dear colleague, I am looking for the recorded TGI of the following compound: CC(C)c1oc(=O)cc2c1C(O)C1OC(=O)C3(C)C(O)C4OC4C2(C)C13 (stereo not given)
Result: 10.6

Ask: Return reported TGI; argument: CC12OC(CC(O)C1O)n1c3ccccc3c3c4c(c5c6ccccc6n2c5c31)C(=O)N(CCN1CCOCC1)C4=O (stereo not given)
Result: 8.71

Ask: What measured TGI goes with CCCCC(=O)N(c1ccc(Nc2c3ccccc3nc3cc([N+](=O)[O-])ccc23)cc1)S(C)(=O)=O ?
Result: 78.8

Ask: I have this compound here, Clc1sc(Cl)c2c1[C@H](Cl)C[C@@H]2Cl , and I need its recorded TGI.
Result: 34.9

More entries:
Ask: Which TGI is listed for COCn1cc(C2=C(C)C(=O)C(C)=C(C)C2=O)cn1 ?
Result: 36.8

Ask: Value lookup for TGI; key = O[C@@]1(C#Cc2ccc3c(c2)OCO3)CCC[C@H]1NCc1ccccc1
Result: 59

Ask: Name the recorded TGI for Cc1c(C(=O)c2ccccc2)[n+](=O)c2cc(Cl)c(Cl)cc2n1[O-] .
Result: 23.2

Ask: Return reported TGI; argument: C=CCn1c2ccccc2c2c3c(c4c5ccccc5n(CC=C)c4c21)C(=O)N(O)C3=O
Result: 28.3

Ask: Tell me the measured TGI of CC1(c2ccccc2)O[C@@H]2C[C@H]3[C@@H]4CCC5=CC(=O)C=C[C@]5(C)[C@@]4(F)[C@@H](O)C[C@]3(C)[C@]2(C(=O)CO)O1 (stereo not given in full) , please.
Result: 41.7

Ask: Bench note: what TGI did C/C=C(\N=C=S)C(=O)OC1C(COC(C)=O)OC([C@]2(O)CC(=O)C(=N)C(C(=O)O)=C2O)C(O)C1OC1CC(OC)C(O)([C@@H](C)OC(=O)[C@@H](C)CC)C(C)O1 (stereo not given in full) show?
Result: 15

Ask: Look at this compound and give its reported TGI. CCCCCCCCOC(=O)C12Oc3ccc(-c4ccc5c(c4O)C(O)=C4C(=O)CC(C)C(O)C4(C(=O)OCCCCCCCC)O5)c(O)c3C(O)=C1C(=O)CC(C)C2O (stereo not given)
Result: 35

Ask: Any idea what its TGI is? The compound is N#Cc1c2ccccc2c(Cc2ccc3c(c2)OCCOCCOCCOCCOCCO3)c2ccccc12
Result: 18.3

Ask: // returns reported TGI for input COc1cc(-c2nn(-c3ccc(NC(=O)Nc4cc(C(F)(F)F)cc(C(F)(F)F)c4)cc3)cc2-c2ccncc2)ccc1Cl
Result: 27.8
